Taken from paper PMC8185074.

Biological target: HDAC3 (Homo sapiens)
Construct: purchased Reaction Biology Corporation (assay run by the CRO)
Assay: HDAC3 inhibition, full IC50 measurement (Reaction Biology; fluorogenic p53 peptide RHKK(Ac)AMC)
Format: biochemical
Conditions: Conc. 1.37E-08 M, t1
Peptide text beside a SMILES is read from it.
Each entry below carries its reported HDAC3 activity raw data (signal).

molecule	HDAC3 activity raw data (signal)
CC(C)C[C@H]1NC(=O)[C@H](Cc2c[nH]c3ccccc23)NC(=O)[C@H](CCCCCS)NC(=O)[C@@H](Cc2ccc(O)cc2)NC(=O)[C@@H](C(C)C)NC(=O)[C@H](Cc2c[nH]cn2)NC(=O)CNC(=O)CNC(=O)[C@@H](CO)NC1=O [des2.2.0, SHA-Trp-dLeu-dSer-Gly-Gly-His-dVal-dTyr] (HELM PEPTIDE1{G.G.H.[dV].[dY].[O=C([C@H](CCCCCS)N[*:1])[*:2]].W.[dL].[dS]}$PEPTIDE1,PEPTIDE1,1:R1-9:R2$$$V2.0)	1020645
CSCC[C@H]1NC(=O)[C@@H](CO)NC(=O)[C@H](CC(N)=O)NC(=O)[C@H](CC(=O)O)NC(=O)[C@@H]([C@H](C)O)NC(=O)[C@H](Cc2c[nH]c3ccccc23)NC(=O)[C@H](CCCCCS)NC(=O)[C@H](CCCCN)NC(=O)[C@@H](CC(=O)O)NC1=O [des2.1.1, SHA-Trp-dThr-Asp-Asn-dSer-dMet-dAsp-Lys] (HELM PEPTIDE1{D.N.[dS].[dM].[dD].K.[O=C([C@H](CCCCCS)N[*:1])[*:2]].W.[dT]}$PEPTIDE1,PEPTIDE1,1:R1-9:R2$$$V2.0)	687389

###

Molecular target: HDAC3 (Homo sapiens, UniProt O15379)
Construct: purchased Reaction Biology Corporation (assay run by the CRO)
Sequence (O15379 whole entry): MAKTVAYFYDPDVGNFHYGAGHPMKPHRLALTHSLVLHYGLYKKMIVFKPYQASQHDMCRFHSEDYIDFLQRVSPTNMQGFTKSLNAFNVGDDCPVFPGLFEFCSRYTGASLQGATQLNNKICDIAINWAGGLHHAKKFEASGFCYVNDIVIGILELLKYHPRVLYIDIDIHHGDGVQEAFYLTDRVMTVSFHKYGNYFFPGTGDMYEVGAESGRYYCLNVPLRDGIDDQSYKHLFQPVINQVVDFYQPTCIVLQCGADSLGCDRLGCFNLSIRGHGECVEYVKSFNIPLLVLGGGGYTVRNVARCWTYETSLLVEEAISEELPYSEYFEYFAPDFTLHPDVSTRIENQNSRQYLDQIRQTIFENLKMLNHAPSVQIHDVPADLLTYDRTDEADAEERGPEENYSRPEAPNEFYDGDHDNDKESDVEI
Sequence (Q9Y618 395-489 partner limits assumed): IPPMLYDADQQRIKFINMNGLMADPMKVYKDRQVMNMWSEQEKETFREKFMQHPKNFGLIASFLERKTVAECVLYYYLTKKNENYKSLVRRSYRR
Test: HDAC3 inhibition, full IC50 measurement (Reaction Biology; fluorogenic p53 peptide RHKK(Ac)AMC)
Type: biochemical
Details: Conc. 1.37E-08 M, t1
Peptide text beside a SMILES is read from it.
Entries and their HDAC3 activity raw data (signal) values follow.
experimental endpoint: HDAC3 activity raw data (signal)

molecule	data value
N=C(N)NCCC[C@@H]1NC(=O)[C@@H](CCCNC(=N)N)NC(=O)[C@H]2CCCN2C(=O)[C@@H](Cc2c[nH]cn2)NC(=O)[C@H](Cc2ccc(O)cc2)NC(=O)[C@H](CCCCCS)NC(=O)[C@H](CCc2ccccc2)NC(=O)[C@@H](CO)NC(=O)[C@H](CC(=O)O)NC1=O [des3.3.1, SHA-Tyr-dHis-dPro-dArg-Arg-Asp-dSer-C27] (HELM PEPTIDE1{[O=C([C@H](CCCCCS)N[*:1])[*:2]].Y.[dH].[dP].[dR].R.D.[dS].[O=C([C@H](CCc1ccccc1)N[*:1])[*:2]]}$PEPTIDE1,PEPTIDE1,1:R1-9:R2$$$V2.0)	79797
NCCCC[C@@H]1NC(=O)[C@@H]2CCCN2C(=O)[C@H](CC(N)=O)NC(=O)[C@H](CCCCCS)NC(=O)CNC(=O)[C@H](Cc2c[nH]c3ccccc23)NC(=O)[C@@H](CCCCN)NC(=O)[C@H](CCC(N)=O)NC1=O [des1.1.0, SHA-Asn-Pro-Lys-Gln-dLys-Trp-Gly] (HELM PEPTIDE1{G.[O=C([C@H](CCCCCS)N[*:1])[*:2]].N.P.K.Q.[dK].W}$PEPTIDE1,PEPTIDE1,1:R1-8:R2$$$V2.0)	1181819
N=C(N)NCCC[C@H]1NC(=O)[C@@H]2CCCN2C(=O)[C@H](CO)NC(=O)[C@@H](Cc2c[nH]cn2)NC(=O)[C@H](CCCCCS)NC(=O)[C@H](CCCCN)NC(=O)[C@H](Cc2ccc(O)cc2)NC(=O)[C@H]2CCCN2C(=O)[C@@H](CCC(N)=O)NC1=O [des3.1.0, SHA-dHis-Ser-Pro-dArg-dGln-dPro-Tyr-Lys] (HELM PEPTIDE1{K.[O=C([C@H](CCCCCS)N[*:1])[*:2]].[dH].S.P.[dR].[dQ].[dP].Y}$PEPTIDE1,PEPTIDE1,1:R1-9:R2$$$V2.0)	932057
